Each recorded value in this set is attributed to patent US11198713B2.

# Test summary: Solubility in DPBS (A280 of supernatant)
# Type: physicochemical
# Assay context: DPBS, Table 3 Part A
Recorded endpoint: Solubility in DPBS

Molecule: CC[C@H](C)[C@@H]1NC(=O)[C@H](Cc2c[nH]cn2)NC(=O)[C@H](C)NC(=O)[C@H](CC(=O)O)NC(=O)[C@H](CC(C)C)NC(=O)[C@H]([C@@H](C)CC)NC(=O)[C@](C)(NC(=O)[C@H](C)NC(C)=O)CCCCC=CCOC(=O)N(C)CCC[C@@](C)(C(=O)N[C@@H](CCCNC(=N)N)C(=O)N[C@H](C(=O)N[C@@H](Cc2c[nH]c3ccccc23)C(N)=O)C(C)C)NC1=O (single isomer, unassigned) [FP0511c Isomer 1, Ac-A-R6-I-L-D-A-H-I-MH-R-V-W-NH2]
Result: 49 (Isomer 1) μM

---

# Test system: full-length beta-catenin (Axin site) (Homo sapiens, UniProt P35222)
# Construct: 15 nM full-length beta-catenin, 20 nM FITC labeled peptide in buffer
# Sequence (P35222 whole entry): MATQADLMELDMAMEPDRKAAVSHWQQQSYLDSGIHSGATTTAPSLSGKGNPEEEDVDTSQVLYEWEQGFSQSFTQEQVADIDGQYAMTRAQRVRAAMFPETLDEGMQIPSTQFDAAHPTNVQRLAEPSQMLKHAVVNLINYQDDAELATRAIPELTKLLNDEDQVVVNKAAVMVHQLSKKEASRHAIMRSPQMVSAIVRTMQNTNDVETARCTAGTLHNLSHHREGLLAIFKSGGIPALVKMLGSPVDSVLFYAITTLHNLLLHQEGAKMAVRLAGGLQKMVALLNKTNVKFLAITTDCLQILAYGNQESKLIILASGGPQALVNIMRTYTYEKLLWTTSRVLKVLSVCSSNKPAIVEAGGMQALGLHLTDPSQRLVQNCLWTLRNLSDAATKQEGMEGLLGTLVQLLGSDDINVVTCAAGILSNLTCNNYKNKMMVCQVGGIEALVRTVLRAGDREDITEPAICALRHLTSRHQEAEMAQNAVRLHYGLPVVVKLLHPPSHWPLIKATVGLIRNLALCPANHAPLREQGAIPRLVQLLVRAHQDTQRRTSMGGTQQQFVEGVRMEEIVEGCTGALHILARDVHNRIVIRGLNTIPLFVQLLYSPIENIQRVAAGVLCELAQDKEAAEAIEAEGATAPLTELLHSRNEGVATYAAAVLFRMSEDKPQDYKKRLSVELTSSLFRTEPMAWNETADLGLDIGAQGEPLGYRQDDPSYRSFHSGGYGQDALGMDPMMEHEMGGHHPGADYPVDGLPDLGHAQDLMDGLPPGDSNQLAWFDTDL
# Test summary: Competition fluorescence polarization assay (Axin site probe)
# Assay type: binding
# Assay context: competition fluorescence polarization, Table 2; read-out: in vitro FP EC50
Recorded endpoint: EC50

Compound: CC[C@H](C)[C@@H]1NC(=O)[C@H](Cc2ccccn2)NC(=O)[C@H](C)NC(=O)[C@H](CC(=O)O)NC(=O)[C@H](CC(C)C)NC(=O)[C@H]([C@@H](C)CC)NC(=O)[C@](C)(NC(=O)[C@H](C)NC(C)=O)CCCCCCC=CCOC(=O)N2CC[C@@](C(=O)N[C@H](C(=O)N[C@H](C(=O)N[C@@H](Cc3c[nH]c4ccccc34)C(N)=O)C(C)C)C(C)(C)C)(C2)NC1=O (single isomer, unassigned) [FP0568c Isomer 1, Ac-A-R8-I-L-D-A-2pyr-I-MB-tLeu-V-W-NH2]
Test system: full-length beta-catenin (Axin site) (Homo sapiens, UniProt P35222)
Recorded endpoint: EC50
Result: > 5 µM

---

# Test summary: Solubility in DPBS (A280 of supernatant)
# Type: physicochemical
# Assay context: DPBS, Table 3 Part A; read-out: Solubility in DPBS
Numbered stars: 1 amine (or outer) side, 2 acyl side, 3 side chain; on linkers, the order of the positions; unused ones are H or OH. Bridge positions count the residues as written; N and C are the ends. Square brackets hold non-standard residues; d marks the D form. Peptide text beside a SMILES is read from it. dαMeDab(Me) = CN(CC[C@@](C)(N[*:1])C(=O)[*:2])[*:3]; X3 = O=C([C@@]1(N[*:1])CCN([*:3])C1)[*:2]; X1 = O=C([C@]1(N[*:1])CCN([*:3])C1)[*:2]; X2 = O=C(OCC=CCOC(=O)[*:2])[*:1]
Catalogue of solubility thermodynamic readings, one per entry.

Compound: CC[C@H](C)[C@@H]1NC(=O)[C@H](Cc2c[nH]cn2)NC(=O)[C@H](C)NC(=O)[C@H](CC(=O)O)NC(=O)[C@H](CC(C)C)NC(=O)[C@H]([C@@H](C)CC)NC(=O)[C@](C)(NC(=O)[C@H](C)NC(C)=O)CCN(C)C(=O)OCC=CCOC(=O)N2CC[C@@](C(=O)N[C@@H](CCCNC(=N)N)C(=O)N[C@H](C(=O)N[C@@H](Cc3c[nH]c4ccccc34)C(N)=O)C(C)C)(C2)NC1=O [FP0597c, Ac-A-MG-I-L-D-A-H-I-MB-R-V-W-NH2] (Ac-A[dαMeDab(Me)]ILDAHI[X1]RVW-NH2; linker 2-9 via X2)
solubility thermodynamic (µM): 98
//
Compound: CC[C@H](C)[C@@H]1NC(=O)[C@H](Cc2c[nH]cn2)NC(=O)[C@H](C)NC(=O)[C@H](CC(=O)O)NC(=O)[C@H](CC(C)C)NC(=O)[C@H]([C@@H](C)CC)NC(=O)[C@](C)(NC(=O)[C@H](C)NC(C)=O)CCN(C)C(=O)OCC=CCOC(=O)N2CC[C@](C(=O)N[C@@H](CCCNC(=N)N)C(=O)N[C@H](C(=O)N[C@@H](Cc3c[nH]c4ccccc34)C(N)=O)C(C)C)(C2)NC1=O [FP0598c, Ac-A-MG-I-L-D-A-H-I-MC-R-V-W-NH2] (Ac-A[dαMeDab(Me)]ILDAHI[X3]RVW-NH2; linker 2-9 via X2)
solubility thermodynamic (µM): 91

---

# Test system: full-length beta-catenin (Axin site) (Homo sapiens, UniProt P35222)
# Construct: 15 nM full-length beta-catenin, 20 nM FITC labeled peptide in buffer
# Test summary: Competition fluorescence polarization assay (Axin site probe)
# Assay type: binding
# Assay context: competition fluorescence polarization, Table 2; read-out: in vitro FP EC50
Numbered stars: 1 amine (or outer) side, 2 acyl side, 3 side chain; on linkers, the order of the positions; unused ones are H or OH. Bridge positions count the residues as written; N and C are the ends. Square brackets hold non-standard residues; d marks the D form. Peptide text beside a SMILES is read from it. X12 = CN(CC=[*:3])CCC[C@@](C)(N[*:1])C(=O)[*:2]; X13 = C[C@@](CCCCC=[*:3])(N[*:1])C(=O)[*:2]
EC50 overview
Recorded endpoint: EC50

Compound: CC[C@H](C)[C@@H]1NC(=O)[C@H](Cc2c[nH]cn2)NC(=O)[C@H](C)NC(=O)[C@H](CC(=O)O)NC(=O)[C@H](CC(C)C)NC(=O)[C@H]([C@@H](C)CC)NC(=O)[C@](C)(NC(=O)[C@H](C)NC(C)=O)CCCN(C)CC=CCCCC[C@@](C)(C(=O)N[C@@H](CCCNC(=N)N)C(=O)N[C@H](C(=O)N[C@@H](Cc2c[nH]c3ccccc23)C(N)=O)C(C)C)NC1=O [FP0507a, Ac-A-MI-I-L-D-A-H-I-S6-R-V-W-NH2] (Ac-A[X12]ILDAHI[X13]RVW-NH2; staple 2-9)
Result: < 100 nM
//
Compound: CC[C@H](C)[C@@H]1NC(=O)[C@@]2(NC(=O)[C@H](CCC(N)=O)NC(=O)[C@@H]3CCCN3C(C)=O)CCN(CC=CCCCC[C@](C)(C(=O)N[C@@H](Cc3c[nH]cn3)C(=O)N[C@H](C(=O)N[C@@H](CCCNC(=N)N)C(=O)N[C@@H](CCCNC(=N)N)C(=O)N[C@H](C(=O)N[C@@H](Cc3c[nH]c4ccccc34)C(=O)N[C@@H](CCCNC(=N)N)C(N)=O)C(C)C)C(C)C)NC(=O)[C@H](CC(=O)O)NC(=O)[C@H](CC(C)C)NC1=O)C2 (single isomer, unassigned) [FP0745a, Ac-P-Q-MC-I-L-D-R6-H-V-R-R-V-W-R-NH2]
Result: 100 to 500 nM

---

# Test summary: Solubility in DPBS (A280 of supernatant)
# Format: physicochemical
# Assay context: DPBS, Table 2; read-out: Solubility
# Description: Suitable assays for assessing solubility are widely known in the art and can be utilized in accordance with the present disclosure. In some embodiments, in an exemplary protocol, dried peptide was reconstituted in DPBS (DPBS, 1×, cell culture grade, Sigma D8537) in triplicate, vortexed, sonicated and then centrifuged. Absorbance of the supernatant was measured at A280 (Nanodrop 2000) and the concentration was determined using the extinction coefficient for tryptophan. […]
Numbered stars: 1 amine (or outer) side, 2 acyl side, 3 side chain; on linkers, the order of the positions; unused ones are H or OH. Bridge positions count the residues as written; N and C are the ends. Square brackets hold non-standard residues; d marks the D form. Peptide text beside a SMILES is read from it. X8 = CN(CC=[*:3])CCC[C@](C)(N[*:1])C(=O)[*:2]; X7 = C[C@](CCCCC=[*:3])(N[*:1])C(=O)[*:2]; Aib = CC(C)(N)C(=O)O
Recorded endpoint: solubility (µM)

Compound: CC[C@H](C)[C@H](NC(=O)[C@H](Cc1c[nH]cn1)NC(=O)[C@H](C)NC(=O)[C@H](CC(=O)O)NC(=O)[C@H](CC(C)C)NC(=O)[C@@H](NC(=O)C(C)(C)NC(=O)[C@H](C)NC(C)=O)[C@@H](C)CC)C(=O)NC(C)(C)C(=O)N[C@@H](CCCNC(=N)N)C(=O)N[C@H](C(=O)N[C@@H](Cc1c[nH]c2ccccc12)C(N)=O)C(C)C [FP0628_aib, Ac-A-Aib-I-L-D-A-H-I-Aib-R-V-W-NH2] (Ac-A[Aib]ILDAHI[Aib]RVW-NH2)
Recorded endpoint: solubility
Recorded number: 88
--
Compound: CC[C@H](C)[C@@H]1NC(=O)[C@H](Cc2c[nH]cn2)NC(=O)[C@H](C)NC(=O)[C@H](CC(=O)O)NC(=O)[C@H](CC(C)C)NC(=O)[C@H]([C@@H](C)CC)NC(=O)[C@](C)(NC(=O)[C@H](C)NC(C)=O)CCC=CCOC(=O)N(C)CCC[C@@](C)(C(=O)N[C@@H](CCCNC(=N)N)C(=O)N[C@H](C(=O)N[C@@H](Cc2c[nH]c3ccccc23)C(N)=O)C(C)C)NC1=O [FP0509c, Ac-A-R4-I-L-D-A-H-I-MH-R-V-W-NH2]
Recorded endpoint: solubility
Recorded number: 32
--
Compound: CC[C@H](C)[C@@H]1NC(=O)[C@H](Cc2c[nH]cn2)NC(=O)[C@H](C)NC(=O)[C@H](CC(=O)O)NC(=O)[C@H](CC(C)C)NC(=O)[C@H]([C@@H](C)CC)NC(=O)[C@](C)(NC(=O)[C@H](C)NC(C)=O)CCCCC=CCN(C)CCC[C@@](C)(C(=O)N[C@@H](CCCNC(=N)N)C(=O)N[C@H](C(=O)N[C@@H](Cc2c[nH]c3ccccc23)C(N)=O)C(C)C)NC1=O [FP0511a, Ac-A-R6-I-L-D-A-H-I-MH-R-V-W-NH2] (Ac-A[X7]ILDAHI[X8]RVW-NH2; staple 2-9)
Recorded endpoint: solubility
Recorded number: 170
